Would you mind telling me the reported log10(IC50) of each entry?
Tested on: Trypanosoma brucei
Assay: DNDI: Inhibition of Human African Trypanosomiasis, Cross 22, in vitro
Assay type: functional, organism-based
Please interpret these as log10 of IC50 where IC50 is in µg/mL.

[Q] Which measured log10(IC50) belongs to CC(C)(C)c1ccc(-c2nc(CNC3[C@H]4C[C@@H]5C[C@@H](C[C@H]3C5)C4)co2)cc1 (stereo partly specified) , tested on Trypanosoma brucei?
[A] -0.08

[Q] Which measured log10(IC50) belongs to CC(C)(C)c1ccc(-c2nc(CNC3CCCCCC3)co2)cc1 , tested on Trypanosoma brucei?
[A] -0.36

[Q] Which measured log10(IC50) belongs to CCCCc1ccc(-c2nc(CNC3[C@H]4C[C@@H]5C[C@@H](C[C@H]3C5)C4)co2)cc1 (stereo partly specified) , tested on Trypanosoma brucei?
[A] -0.36

[Q] Which measured log10(IC50) belongs to CCCCCC(C)NCc1coc(-c2ccc(Br)cc2)n1 (stereo unspecified) , tested on Trypanosoma brucei?
[A] 0.30

[Q] Which measured log10(IC50) belongs to CCCCc1ccc(-c2nc(CNC3CCCCCC3)co2)cc1 , tested on Trypanosoma brucei?
[A] -0.40

Please report log10(IC50) for every entry that follows.
1. CC1CC(NCc2coc(-c3ccc(Br)cc3)n2)CC(C)(C)C1 (stereo unspecified)
2. c1ccc(-c2ccc(-c3nc(CNC4CCCCCC4)co3)cc2)cc1

[A]
[-0.06, -0.27]

====

System: Trypanosoma brucei
Assay: DNDI: Inhibition of Human African Trypanosomiasis, Cross 22, in vitro
Type: functional, organism-based
experimental readout: IC50 (µg/mL)
Give bare numbers, in µg/mL.

A selection of reference data follows.
[Q] Look at this compound and give its reported IC50. CCCCc1ccc(-c2nc(CNC[C@@H]3CC[C@H]4C[C@@H]3C4(C)C)co2)cc1
[A] 0.31

[Q] Look at this compound and give its reported IC50. CCCCc1ccc(-c2nc(CNC3CC(C)CC(C)(C)C3)co2)cc1 (centres undefined)
[A] 0.34

***
[Q] Look at this compound and give its reported IC50. Brc1ccc(-c2nc(CNC3[C@H]4C[C@@H]5C[C@@H](C[C@H]3C5)C4)co2)cc1 (some centres undefined)
[A] 2.26

====

Conditions: mouse, microsomes, 1 µM
Description: DNDI: in vitro intrinsic clearance in mouse liver microsomes at a concentration of 1uM
experimental readout: log10(CLint in vitro) (log10 of the value in µL/min/mg)
Please interpret these as log10 of CLint in vitro where CLint in vitro is in µL/min/mg.

[Q] Look at this compound and give its reported log10(CLint in vitro). CCCCCC(C)NCc1coc(-c2ccc(OCc3ccc(C)cc3)cc2)n1 (stereo unspecified)
[A] 1.11

[Q] Look at this compound and give its reported log10(CLint in vitro). CCCCCOc1ccc(-c2nc(CNCCC3CCCN3C)co2)cc1 (stereo unspecified)
[A] 1.04

[Q] Look at this compound and give its reported log10(CLint in vitro). O/N=C(\NC1CCCCC1)c1cccnc1
[A] 1.08

Please report log10(CLint in vitro) for every entry that follows.
1. COc1ccccc1CNC(CCc1ccccc1)c1nc(Cc2ccccc2)c(N2CCCCC2)o1 (stereo unspecified)
2. O/N=C(\NC1CCCCC1)c1ccc(-c2ccccc2)cc1
3. O=C(NC1CCCCC1)c1ccccc1-c1ccccc1
4. CCOc1ccc(-c2nc(CNC3[C@H]4C[C@@H]5C[C@@H](C[C@H]3C5)C4)co2)cc1 (stereo partly specified)
5. O/N=C(\NC1CCCCC1)c1cccnc1Oc1c(F)cccc1F
6. CCCCOc1ccc(-c2nc(CNCCC3CCCN3C)co2)cc1 (stereo unspecified)
7. Cc1ccc(/C(=N/O)Nc2cccc(F)c2)c(Oc2ccc(C(C)(C)C)cc2)n1

[A]
1: 2.69; 2: 2.45; 3: 2.06; 4: 2.01; 5: 2.55; 6: 1.08; 7: 1.50

====

Assay: in vitro
Conditions: mouse, liver microsomes, t (1 / 2)
Description: DNDI: half life in mouse liver microsomes at a concentration of 1uM
Response field label: string, one of rule met (half-life at 1 µM strictly below 3 min) or rule not met.

[Q] Please let me know if CC(C)(C)c1ccc(-c2nc(CNC3[C@H]4C[C@@H]5C[C@@H](C[C@H]3C5)C4)co2)cc1 (stereo partly specified) shows half-life at 1 µM below 3 min.
[A] rule not met

[Q] Please let me know if CCCCCC(C)NCc1coc(-c2ccc(C(C)(C)C)cc2)n1 (stereo unspecified) shows half-life at 1 µM below 3 min.
[A] rule not met

[Q] Please let me know if CCCCCC(C)NCc1coc(-c2ccc(OCCCC)cc2)n1 (stereo unspecified) shows half-life at 1 µM below 3 min.
[A] rule not met

We next turn to a different compound, shown below.
[Q] Please let me know if CCC(C)C(NCc1ccccc1OC)c1nc(-c2ccccc2)c(N2CCOCC2)o1 (stereo unspecified) shows half-life at 1 µM below 3 min.
[A] rule met

====

Test: DNDI: Lipophilicity measured in Chromatographic hydrophobicity index (CHI) assay, pH 7.4
Assay type: physicochemical
Settings: buffer
experimental readout: chromatographic logD
Answers are plain numbers.

[Q] Look at this compound and give its reported chromatographic logD. CCCCc1ccc(-c2nc(CNC[C@@H]3CC[C@H]4C[C@@H]3C4(C)C)co2)cc1
[A] 6.68

[Q] Look at this compound and give its reported chromatographic logD. CCOc1ccc(-c2nc(CNC[C@@H]3CC[C@H]4C[C@@H]3C4(C)C)co2)cc1
[A] 5.5

[Q] Look at this compound and give its reported chromatographic logD. CCOc1ccc(-c2nc(CNC3C[C@@H]4C[C@H]([C@H]3C)C4(C)C)co2)cc1 (stereo not given in full)
[A] 5.22

[Q] Look at this compound and give its reported chromatographic logD. COc1ccc(/C(=N/O)Nc2cccc(C(F)(F)F)c2)cc1
[A] 3.67

Now for a further compound.
[Q] Look at this compound and give its reported chromatographic logD. O/N=C(\NC1CCCCC1)c1ccccc1-c1ccccc1
[A] 4.53

====

Assay: DNDI: Cytotoxicity against L929 mouse fibroblasts, 72 hour.
Format: toxicity, cell-based
Settings: mouse, L929 mouse fibroblasts
Response field label: string, one of satisfied (IC50 at 72 h strictly below 3 mg/L) or not satisfied.

[Q] Please let me know if CCCCCC(C)NCc1coc(-c2cc(Cl)ccc2O)n1 (stereo unspecified) shows IC50 at 72 h below 3 mg/L.
[A] satisfied

[Q] Please let me know if CC(C)CNC(CCc1ccccc1)c1nc(Cc2ccccc2)c(N2CCCCC2)o1 (stereo unspecified) shows IC50 at 72 h below 3 mg/L.
[A] not satisfied

[Q] Please let me know if O/N=C(\NCC1CCCCC1)c1ccccc1-c1ccccc1 shows IC50 at 72 h below 3 mg/L.
[A] satisfied

***
[Q] Please let me know if CCCCCC(C)NCc1coc(-c2cc(C(F)(F)F)cc(C(F)(F)F)c2)n1 (stereo unspecified) shows IC50 at 72 h below 3 mg/L.
[A] not satisfied

[Q] Please let me know if CC1CC(NCc2coc(-c3ccc(OC(C)C)cc3)n2)CC(C)(C)C1 (stereo unspecified) shows IC50 at 72 h below 3 mg/L.
[A] satisfied

[Q] Please let me know if CCOCCCNC(c1nc(-c2ccccc2)c(N2CCCCC2)o1)C(C)CC (stereo unspecified) shows IC50 at 72 h below 3 mg/L.
[A] not satisfied

[Q] Please let me know if COc1ccc(C(=O)OC2=CC(=O)N(C)C2)cc1 shows IC50 at 72 h below 3 mg/L.
[A] not satisfied

[Q] Please let me know if CCC(C)C(NCc1ccccc1OC)c1nc(Cc2ccccc2)c(N2CCCCC2)o1 (stereo unspecified) shows IC50 at 72 h below 3 mg/L.
[A] not satisfied

[Q] Please let me know if CCCCCC(C)NCc1noc(-c2ccccc2)n1 (stereo unspecified) shows IC50 at 72 h below 3 mg/L.
[A] not satisfied

[Q] Please let me know if CCCCC[C@@H](C)NCc1coc(-c2ccc(Cl)cc2)n1 shows IC50 at 72 h below 3 mg/L.
[A] not satisfied

[Q] Please let me know if c1ccc(Cc2nc(C(NCc3ccc4c(c3)OCO4)C3CC3)oc2N2CCOCC2)cc1 (stereo unspecified) shows IC50 at 72 h below 3 mg/L.
[A] not satisfied

====

Would you mind telling me the reported recovery of each entry?
Target: MDR1 (ABCB1) (Homo sapiens, UniProt P08183)
Sequence (P08183 whole entry): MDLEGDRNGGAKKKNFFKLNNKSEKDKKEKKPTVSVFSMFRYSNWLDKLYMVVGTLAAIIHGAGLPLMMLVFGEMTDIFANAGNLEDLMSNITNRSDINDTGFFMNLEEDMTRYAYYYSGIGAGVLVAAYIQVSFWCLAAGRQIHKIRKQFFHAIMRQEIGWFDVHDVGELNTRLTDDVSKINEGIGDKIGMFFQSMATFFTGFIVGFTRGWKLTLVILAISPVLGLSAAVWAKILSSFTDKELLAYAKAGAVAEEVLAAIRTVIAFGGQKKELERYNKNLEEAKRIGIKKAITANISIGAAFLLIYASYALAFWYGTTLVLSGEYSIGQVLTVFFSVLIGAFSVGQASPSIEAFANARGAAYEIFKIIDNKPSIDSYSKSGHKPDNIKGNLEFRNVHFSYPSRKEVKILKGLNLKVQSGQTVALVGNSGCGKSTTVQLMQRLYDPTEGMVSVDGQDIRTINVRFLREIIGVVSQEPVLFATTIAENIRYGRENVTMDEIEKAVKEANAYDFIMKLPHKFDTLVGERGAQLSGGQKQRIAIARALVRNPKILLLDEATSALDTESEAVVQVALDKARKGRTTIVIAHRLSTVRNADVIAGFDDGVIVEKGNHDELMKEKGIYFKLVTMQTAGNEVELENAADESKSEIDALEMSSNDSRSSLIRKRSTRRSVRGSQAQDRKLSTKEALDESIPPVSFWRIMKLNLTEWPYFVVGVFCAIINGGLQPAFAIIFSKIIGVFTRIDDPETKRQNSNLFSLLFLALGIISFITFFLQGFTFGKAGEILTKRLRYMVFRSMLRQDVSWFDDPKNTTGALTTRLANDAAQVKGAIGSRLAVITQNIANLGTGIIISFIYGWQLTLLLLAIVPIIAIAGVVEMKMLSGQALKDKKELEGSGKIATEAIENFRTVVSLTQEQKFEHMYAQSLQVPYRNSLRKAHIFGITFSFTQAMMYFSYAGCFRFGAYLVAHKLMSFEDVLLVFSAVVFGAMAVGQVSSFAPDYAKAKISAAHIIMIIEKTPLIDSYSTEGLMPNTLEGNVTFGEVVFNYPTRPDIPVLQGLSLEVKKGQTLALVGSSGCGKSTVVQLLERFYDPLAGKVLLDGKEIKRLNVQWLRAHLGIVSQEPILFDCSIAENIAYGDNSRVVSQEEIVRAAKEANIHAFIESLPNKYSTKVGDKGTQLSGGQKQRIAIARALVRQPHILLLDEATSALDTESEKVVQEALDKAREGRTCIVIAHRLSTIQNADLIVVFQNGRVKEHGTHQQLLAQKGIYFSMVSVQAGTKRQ
Experiment: DNDI: % of compound recovered from apical to basolateral permeability assay in MDCK cells transfected with human MDR1
Format: ADME, cell-based, Canis lupus familiaris
Details: dog
Give bare numbers, in %.

A selection of reference data follows.
[Q] Which measured recovery belongs to COc1ccccc1Oc1ncccc1/C(=N\O)NC1CCCCC1 , tested on MDR1 (ABCB1) (Homo sapiens, UniProt P08183)?
[A] 77

[Q] Which measured recovery belongs to O/N=C(/NC1CCCCC1)c1cccnc1Oc1ccccc1 , tested on MDR1 (ABCB1) (Homo sapiens, UniProt P08183)?
[A] 66

[Q] Which measured recovery belongs to CCOc1ccc(-c2nc(CNC[C@@H]3CC[C@H]4C[C@@H]3C4(C)C)co2)cc1 , tested on MDR1 (ABCB1) (Homo sapiens, UniProt P08183)?
[A] 21

[Q] Which measured recovery belongs to CCCCCC(C)NCc1coc(-c2ccc(OCC)cc2)n1 (stereo not given) , tested on MDR1 (ABCB1) (Homo sapiens, UniProt P08183)?
[A] 33

Now for a further molecule.
[Q] Which measured recovery belongs to O/N=C(/NC1CCCCC1)c1cccnc1Oc1ccccc1Cl , tested on MDR1 (ABCB1) (Homo sapiens, UniProt P08183)?
[A] 58
